This collection of values is drawn from patent US8653074B2.

Target: EGLN2/PHD1 (Homo sapiens)
Sequence (Q96KS0 whole entry): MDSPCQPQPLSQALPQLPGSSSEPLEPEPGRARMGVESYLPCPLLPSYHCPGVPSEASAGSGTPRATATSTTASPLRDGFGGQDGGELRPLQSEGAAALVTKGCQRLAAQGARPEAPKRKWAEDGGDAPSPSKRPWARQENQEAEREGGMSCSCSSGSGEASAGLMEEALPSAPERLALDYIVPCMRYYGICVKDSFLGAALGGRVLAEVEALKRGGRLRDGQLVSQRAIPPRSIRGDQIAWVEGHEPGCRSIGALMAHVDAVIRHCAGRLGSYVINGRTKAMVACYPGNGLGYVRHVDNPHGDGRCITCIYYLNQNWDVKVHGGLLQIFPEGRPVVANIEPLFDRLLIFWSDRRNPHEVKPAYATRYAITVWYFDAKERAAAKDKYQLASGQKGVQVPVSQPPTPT
Experiment: Inhibition of the activity of HIF prolyl hydroxylase (VBC complex binding test)
Details: mean for EGLN2/PHD1
readout.kind: pIC50
Give bare numbers, as −log10 of the molar value.

stdin: Form field: reported pIC50 of `[Na+].[O-]c1c(-n2ccnn2)cnn1-c1cc(N2CCOCC2)ncn1`
stdout: 6.33

---

Target: EGLN1/PHD2 (Homo sapiens)
Sequence (Q9GZT9 whole entry): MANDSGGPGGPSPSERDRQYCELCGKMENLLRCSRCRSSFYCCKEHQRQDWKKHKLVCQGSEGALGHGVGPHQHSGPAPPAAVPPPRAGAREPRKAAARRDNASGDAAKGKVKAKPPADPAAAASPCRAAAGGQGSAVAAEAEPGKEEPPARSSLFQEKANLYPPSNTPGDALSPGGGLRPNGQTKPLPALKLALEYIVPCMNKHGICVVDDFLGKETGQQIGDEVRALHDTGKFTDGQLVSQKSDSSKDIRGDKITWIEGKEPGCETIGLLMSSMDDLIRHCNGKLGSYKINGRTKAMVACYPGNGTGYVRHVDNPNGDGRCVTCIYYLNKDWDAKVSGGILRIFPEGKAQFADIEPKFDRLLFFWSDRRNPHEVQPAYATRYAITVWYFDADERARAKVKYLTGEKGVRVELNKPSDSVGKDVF
Test: biochemical
readout.kind: pIC50
One number for each entry, as −log10 of the molar value.

stdin: Form field: reported pIC50 of `[Na+].[O-]c1c(-n2ccnn2)cnn1-c1cc(N2CCOCC2)ncn1`
stdout: 6.85

---

System: recombinant A549 cell line with luciferase reporter under hypoxia-responsible elements
Assay: Cellular, functional in vitro test (luciferase reporter under hypoxia-responsible elements)
Assay type: cell-based
Conditions: Homo sapiens
readout.kind: pEC50
Answers are plain numbers, as −log10 of the molar value.

stdin: // fetch recombinant A549 cell line with luciferase reporter under hypoxia-responsible elements pEC50 for [Na+].[O-]c1c(-n2ccnn2)cnn1-c1cc(N2CCOCC2)ncn1 [Compound of the formula (II)]
stdout: 8.15

---

Assay: Solubility in water
Type: physicochemical
Conditions: thermodynamic from solid; water, 25° C., stirred 16 hours, HPLC
Consider the following molecules; for each one, report its solubility thermodynamic at 16 h.
Numbers only, in mg/mL.

>>> endpoint_value("[Na+].[O-]c1c(-n2ccnn2)cnn1-c1cc(N2CCOCC2)ncn1")
28

// switching to the query molecule
stdin: Form field: reported solubility thermodynamic at 16 h of Oc1c(-n2ccnn2)cnn1-c1cc(N2CCOCC2)ncn1 [Compound of the formula (I), reference compound]
stdout: 0.143
